Where do the numbers come from? From PubChem BioAssay.

# TEST_PROTOCOL: inhibitors of the yeast RAM network, pilot screen, dse1pr::URA3 reporter, 5-FOA selection (AID 869);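 note: 0% = DMSO wells with no growth and 100% = 10 µM 1-NA-PP1 with full growth; RAM network block rescues cells from 5-FOA so hits raise OD615 growth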
# CONDITION_DESCRIPTION: S. cerevisiae dse1pr::URA3 5-FOA growth, OD615, 2 d; at 10 µM; stronger effect = higher value; strain carries analog-sensitive mutant Cbk1 kinase
Threshold check on inhibition: at or above 1% gives 1, strictly below gives -1.

[[record]]
compound = "CCOC(=O)Cc1csc(NC(=O)CN(C)S(=O)(=O)c2cccc3cccnc23)n1"
answer_label = 1

[[record]]
compound = "Cc1c(C(=O)NCc2ccccn2)sc2nc(-c3ccccc3)cn12"
answer_label = -1

[[record]]
compound = "O=C1CN(C(=O)CN2CCOCC2)C(c2ccccc2)c2cc(Br)ccc2N1 (stereo unspecified)"
answer_label = -1

[[record]]
compound = "Cc1ccc(-c2nc(CS(=O)(=O)CC(=O)NCCCN3CCN(C)CC3)c(C)o2)cc1"
answer_label = 1

[[record]]
compound = "CCOC(=O)c1ccccc1NC(=O)CN(c1cccc(OC)c1)S(C)(=O)=O"
answer_label = 1


---

This section presents molecules with their documented growth inhibition values.
# TEST_PROTOCOL: OD615 S. cerevisiae growth inhibition, permissive medium, pilot counter-assay, permissive growth control for S. cerevisiae lifespan shortening project (AID 705)
# CONDITION_DESCRIPTION: OD615, 24 h, at 10 µM, stronger effect = higher value
Active and inactive are the calls of the source.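 The calls were made as follows: active = growth inhibition above 25% in both replicates, a cutoff set 3 SD above the mean; inconclusive = above 25% in only one replicate; inactive = the rest.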
MEASURED_PROPERTY: growth inhibition

[[record]]
molecule = "CCNC(=O)c1c(C)nc2ccccn12"
result = "3.27% (inactive)"

[[record]]
molecule = "N#CC1=C(N)OC2=C(C(=O)CCC2)C1c1ccsc1 (stereo not drawn)"
result = "-7.86% (inactive)"

[[record]]
molecule = "Cc1ccc(-n2c3c(cc(C(=O)N4CCN(C)CC4)c2=O)C(=O)CC(C)(C)C3)cc1"
result = "-21.9% (inactive)"

[[record]]
molecule = "O=C(O)CCCC(=O)Nc1ccccc1Br"
result = "9.25% (inactive)"

[[record]]
molecule = "CCc1ccc(N(CC(=O)NC2CCCCC2)S(=O)(=O)c2c(C)noc2C)cc1"
result = "-9.43% (inactive)"

[[record]]
molecule = "COc1ccc2nc(SCc3nc(N)nc(Nc4ccccc4)n3)[nH]c2c1"
result = "-8.8% (inactive)"

[[record]]
molecule = "Cc1cc(C)c(NC(=O)CN2CCN(C)CC2)c(C)c1"
result = "-1.99% (inactive)"

[[record]]
molecule = "CCOC(=O)c1oc2cc(O)c(CC)cc2c(=O)c1-c1ccc2c(c1)OCCO2"
result = "-22.8% (inactive)"

[[record]]
molecule = "CCOC(=O)N1CCN(C(=O)c2cc(C)no2)CC1"
result = "-9.98% (inactive)"

[[record]]
molecule = "Cc1cccc(C)c1N1C(=O)c2ccccc2C1=O"
result = "-6.34% (inactive)"

[[record]]
molecule = "COc1cccc(OCCn2c(C)c(/C=N/n3cnnc3)c3ccccc32)c1"
result = "4.55% (inactive)"

[[record]]
molecule = "Cn1c(=O)cc(N2CCCCC2)[nH]c1=O"
result = "-15.3% (inactive)"

[[record]]
molecule = "COc1cccc(C2CC(=O)N3CN(c4cccc(Cl)c4C)CSC3=C2C#N)c1OC (stereo not drawn)"
result = "5.33% (inactive)"

[[record]]
molecule = "CCOC(=O)Cn1c(=O)oc2cc(S(=O)(=O)NCC3CCCO3)ccc21 (stereo not drawn)"
result = "-10.1% (inactive)"

[[record]]
molecule = "O=C1CN(C(=O)c2ccc(Br)o2)C(c2ccccc2)c2cc(F)ccc2N1 (stereo not drawn)"
result = "-12.5% (inactive)"

[[record]]
molecule = "CCCCOC(=O)Nc1nc(CC(=O)OCC)cs1"
result = "-1.73% (inactive)"

[[record]]
molecule = "CCOc1ccc(C2c3c(oc4ccccc4c3=O)C(=O)N2CCCN2CCOCC2)cc1OCC (stereo not drawn)"
result = "-14% (inactive)"

[[record]]
molecule = "CCC(=O)Nc1c(C)cc(C)cc1Cl"
result = "-12.5% (inactive)"

[[record]]
molecule = "Cn1c(NC(=O)c2ccccc2Br)cc(=O)n(C)c1=O"
result = "-9.54% (inactive)"

[[record]]
molecule = "CCOC(=O)C(C(=O)OCC)c1cc(Br)c2noc3c2c1C(=O)c1ccccc1-3"
result = "-15.6% (inactive)"

[[record]]
molecule = "CC(C)(C)NC(=O)C1CCCN(S(=O)(=O)c2cccc3cccnc23)C1 (stereo not drawn)"
result = "-5.03% (inactive)"

[[record]]
molecule = "COC(=O)c1ccc(C2C(C(=O)Nc3ccc(C)cc3C)=C(C)Nc3ncnn32)cc1 (stereo not drawn)"
result = "2.06% (inactive)"

[[record]]
molecule = "COc1ccc(C2C(C(=O)Nc3cccnc3)=C(C)Nc3nc(-c4ccco4)nn32)cc1 (stereo not drawn)"
result = "4.86% (inactive)"

